Each item that follows carries a reported GI50.
Assay: in vitro
Assay type: cell-based
Conditions: human
Starred links: 1 amine or outer side, 2 acyl side, 3 side chain; linkers in the order of their positions; H or OH if unused. Positions of bridges follow the written chain, without caps; N, C: chain ends. Non-standard residues stand in square brackets, D forms with d. Residues, ends and D or L forms follow the SMILES beside them. X2 = O=C(CC[C@H](Cc1ccc(O)cc1)N[*:1])[*:2]; β3hS = N[C@@H](CO)CC(=O)O; Dab = NCC[C@H](N)C(=O)O
readout_name: GI50

>>> result("C[C@@H]1NC(=O)[C@H](Cc2c[nH]cn2)NC(=O)[C@H](Cc2ccc(O)cc2)NC(=O)[C@@H]2CCCN2C(=O)[C@@H](Cc2cn(Cc3ccccc3)cn2)NC(=O)[C@H](CCCCN)NC(=O)[C@H](CCC(N)=O)NC(=O)[C@H](Cc2ccc(O)cc2)NC(=O)[C@@H]2CSSC[C@H](NC1=O)C(=O)N[C@@H](CO)C(=O)N[C@@H](C)C(=O)N1CCC[C@@H]1C(=O)N[C@@H](CCN)C(=O)N[C@@H](CCCNC(=N)N)C(=O)N[C@@H](Cc1ccc(O)cc1)C(=O)N2")
"> 50 µM"
>>> result("CC[C@@H](C)[C@H]1NC(=O)[C@H](CCCCN)NC(=O)[C@H](CCC(N)=O)NC(=O)[C@H](Cc2ccc(O)cc2)NC(=O)[C@@H]2CSSC[C@H](NC(=O)[C@H](C)NC(=O)[C@H](Cc3c[nH]cn3)NC(=O)[C@H](Cc3ccc(O)cc3)NC(=O)[C@@H]3CCCN3C1=O)C(=O)N[C@@H](CO)C(=O)N[C@@H](C)C(=O)N[C@H](Cc1c[nH]c3ccccc13)C(=O)N[C@@H](CCN)C(=O)N[C@@H](CCCNC(=N)N)C(=O)N[C@@H](Cc1ccc(O)cc1)C(=O)N2")
"> 50 µM"
>>> result("C[C@@H]1NC(=O)[C@H](Cc2c[nH]cn2)NC(=O)[C@H](Cc2ccc(O)cc2)NC(=O)[C@@H]2CCCN2C(=O)[C@H]2CCCN2C(=O)[C@H](CCCCN)NC(=O)[C@H](CCC(N)=O)NC(=O)[C@H](Cc2ccc(O)cc2)NC(=O)[C@@H]2CSSC[C@H](NC1=O)C(=O)N[C@@H](CO)CC(=O)N[C@@H](C)C(=O)N1CCC[C@@H]1C(=O)N[C@@H](CCN)C(=O)N[C@@H](CCCNC(=N)N)C(=O)N[C@@H](Cc1ccc(O)cc1)C(=O)N2 [compound 20] (cyclo(YHAC[β3hS]A[dP][Dab]RYCYQK[dP]P); disulfide 4-11)")
"> 50 µM"
>>> result("C[C@@H]1NC(=O)[C@H](Cc2c[nH]cn2)NC(=O)[C@H](Cc2ccc(O)cc2)NC(=O)[C@@H]2CCCN2C(=O)[C@@H](CCCCN)N(C)C(=O)[C@H](CCCCN)NC(=O)[C@H](CCC(N)=O)NC(=O)[C@H](Cc2ccc(O)cc2)NC(=O)[C@@H]2CSSC[C@H](NC1=O)C(=O)N[C@@H](CO)C(=O)N[C@@H](C)C(=O)N1CCC[C@@H]1C(=O)N[C@@H](CCN)C(=O)N[C@@H](CCCNC(=N)N)C(=O)N[C@@H](Cc1ccc(O)cc1)C(=O)N2")
"> 50 µM"
>>> result("CC[C@@H](C)[C@@H]1C(=O)N2CCC[C@H]2C(=O)N[C@@H](Cc2ccc(O)cc2)C(=O)N[C@@H](Cc2c[nH]cn2)C(=O)N[C@@H](C)C(=O)N[C@H]2CSSC[C@H](NC(=O)[C@H](Cc3ccc(O)cc3)NC(=O)[C@H](CCCNC(=N)N)NC(=O)[C@H](CCN)NC(=O)[C@H]3CCCN3C(=O)[C@H](C)NC(=O)[C@H](CO)NC2=O)C(=O)N[C@@H](Cc2ccc(O)cc2)C(=O)N[C@@H](CCC(N)=O)C(=O)N[C@@H](CCCCN)C(=O)N1C")
"> 50 µM"
>>> result("C[C@@H]1NC(=O)[C@H](Cc2c[nH]cn2)NC(=O)CC[C@H](Cc2ccc(O)cc2)NC(=O)[C@@H]2CCCN2C(=O)[C@H]2CCCN2C(=O)[C@H](CCCCN)NC(=O)[C@H](CCC(N)=O)NC(=O)[C@H](Cc2ccc(O)cc2)NC(=O)[C@@H]2CSSC[C@H](NC1=O)C(=O)N[C@@H](CO)C(=O)N[C@@H](C)C(=O)N1CCC[C@@H]1C(=O)N[C@@H](CCN)C(=O)N[C@@H](CCCNC(=N)N)C(=O)N[C@@H](Cc1ccc(O)cc1)C(=O)N2 [compound 18] (cyclo([X2]HACSA[dP][Dab]RYCYQK[dP]P); disulfide 4-11)")
"> 50 µM"
